Where do these numbers come from? They come from the supplement of paper PMC8671470.

tested on: HL-60; test: cell viability (% survival relative to DMSO control); higher = less cytotoxic; conditions: 10 µM; 72 h; co-treatment: AZD3965 100 nM
This listing pairs compounds with measured cell viability.
The answer is to be given in %; state only the numeric part.

// solved cases for cell viability follow
compound	observed-property	test-result
CCCCC/C=C\C/C=C\C/C=C\C/C=C\CCCC(=O)C(F)(F)F	cell viability	98.3
C[C@H]1O[C@H](O[C@H]2[C@H](O)[C@@H](O)[C@@H](O[C@H]3[C@H](O)[C@@H](O)C(O)O[C@@H]3CO)O[C@@H]2CO)[C@H](O)[C@@H](O)[C@@H]1N[C@H]1C=C(CO)[C@@H](O)[C@H](O)[C@H]1O (mixture of isomers)	cell viability	88.1

Query: Quick check: cell viability of O=C(/C=C/c1cccnc1)NCCCCC1CCN(C(=O)c2ccccc2)CC1 ?
Response: 0.166

Query: Check NC(CCC(=O)NC(CSCc1ccc(Br)cc1)C(=O)NCC(=O)OC1CCCC1)C(=O)OC1CCCC1 (stereo not given) too.
Response: 77.1

Query: Please give the result for NCc1ccc(S(N)(=O)=O)cc1 [4-Homosulfanilamide] too.
Response: 99.2
